Below is a list of entries, each paired with its recorded growth inhibition value.
Test: NCI Yeast Anticancer Drug Screen. Data for the rad50EPP+ strain (AID 151);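 note: 0% = growth of vehicle-treated control cultures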
Conditions: S. cerevisiae rad50 mutant strain, at 3.7 µM, active compounds read high
Compounds without any hit were thinned out: in the full panel of roughly 79,000, 15% have a hit.
Could you give me the number in %? Just the number is fine.

compound	growth inhibition / %
COC(=O)C1(N2CCOCC2)CCC([C@@H](c2ccccc2)C(C)[N+](=O)[O-])C1 (some centres undefined)	3
[Cl][Pt+2][Cl].[NH-]CC1(C[NH-])CCCCC1	-6
CCOC(=O)c1sc2[n+](c1C)C(=O)/C(=C/c1cc(OC)c(OC)c(OC)c1)S2	6
O=C(CCC(=O)c1ccc(O)cc1)Oc1ccc(O)cc1	9
O=C1C=CC(=O)N1c1ccc(Br)cc1Cl	102
O=C(O)/C=C\C(=O)NNc1ccc(Br)cc1	78
COc1ccc(/C=C2\S/C(=N/Nc3nc(-c4ccccc4)cs3)NC2=O)cc1OC	63
CCOc1nc(OCC)nc(-c2cccn2-c2ccccc2)n1	5
c1cc(Nc2ccc3c(c2)OCO3)c2cc(C3CCCCC3)ccc2n1	-2
O=C(N/N=C/c1ccc2c(c1)CCC2)c1ccccc1[N+](=O)[O-]	15

## Task Please report the recorded growth inhibition for O=C(Cc1ccccc1)c1ccc(O)cc1 .
## Result 10

## Task Same lookup for COc1ccc2nc(N/N=C/c3sccc3C)cc(C)c2c1 , please.
## Result -19

## Task Would you kindly repeat that for O=C1c2ccc(O)cc2C(=O)c2c(O)ccc(O)c21 ?
## Result 64

## Task Same for Cc1nc2ccc(Br)cc2c(=O)n1-c1ccc(NC2OCC(O)C(O)C2O)cc1 (centres undefined)
## Result -1

----------
Test: NCI Yeast Anticancer Drug Screen. Data for the mlh1 rad18 strain (AID 175)
Details: S. cerevisiae mlh1 rad18 strain growth inhibition; at 50.0 µM
The panel holds about 79,000 compounds, 15% with a hit somewhere; the sample as a whole holds those more often. Calls of active or inactive are those of the source. Rule as the data show it: active = growth inhibition above about 70%; inactive = the rest.
Write down the outcome that applies. Available outcomes: active, inactive

Example entries and their recorded answers appear below.
molecule	answer.label
Cc1ccc(N(C=O)c2c([N+](=O)[O-])cc([N+](=O)[O-])c3c2=[N+]([O-])CN=3)cc1	inactive
Nc1c([N+](=O)[O-])cc2c3c(cccc13)CC2	active
NCC(O)CSCc1ccc(Cl)cc1 (stereo not given)	active
CC(=O)CC[N+](C)(C)C	inactive

Turning now to a further record.
## Task In this assay, the call recorded for CC(C)(C(=O)NN)c1ccccc1 was what?
## Result inactive

----------
Assay: NCI Yeast Anticancer Drug Screen. Data for the sgs1 strain (AID 173);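 note: 0% = growth of vehicle-only control cultures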
Conditions: S. cerevisiae sgs1 mutant, at 33.0 µM, active compounds read high
About 79,000 compounds went through this panel and 15% of them were active in at least one assay; those are over-represented in the sample as a whole.
The entries below come with measured growth inhibition values attached.
Report only the number, with the unit % understood.

compound	reading.unit	growth inhibition
CC[C@]1(O)C[C@H]2CN(CCc3c([nH]c4ccccc34)[C@@](C(=O)OC)(c3cc4c(cc3OC)N(C)[C@H]3[C@@](O)(C(=O)OC)[C@H](OC(C)=O)[C@]5(CC)C=CCN6CC[C@]43[C@@H]65)C2)C1	%	1
Cc1c2ccncc2c(C)c2c1oc1ccccc12	%	93
[N-]=[N+]=NC1CC(n2ccc(=O)[nH]c2=O)OC1COC(c1ccccc1)(c1ccccc1)c1ccccc1 (stereo unspecified)	%	84
c1ccc2cc(OCC3CO3)c(OCC3CO3)cc2c1 (stereo unspecified)	%	82

## Task // query growth inhibition value for entry COC1=C(N=[N+]=[N-])C(=O)c2ncccc2C1=O
## Result 84

## Task // repeat for CCOC(=O)c1sc2[n+](c1C)C(=O)/C(=C/c1cc(OC)c(OC)c(OC)c1)S2 and report
## Result 90

## Task Another compound: Cc1nc2ccc(NCCN(C)C)c3c(=O)c4ccccc4n1c23
## Result 24

## Task Next up: O=C(/C(=C/c1ccccc1)CBr)c1ccccc1
## Result 96

## Task Input CC1=Cc2ccc(C)cc2C(=O)C1=O
## Result 99

## Task Field entry: O=C(O)CN(CCNC(=O)OCC1c2ccccc2-c2ccccc21)CCNC(=O)OCC1c2ccccc2-c2ccccc21
## Result 97

## Task What do you have for O=C(c1c(F)c(F)c(F)c(F)c1F)c1c(F)c(F)c(F)c(F)c1F ?
## Result 97

## Task What do we get for O=C(O)/C=C\C(=O)NNc1ccc(Br)cc1 ?
## Result 99

## Task What do you have for O=C(N/N=C/c1ccc2c(c1)CCC2)c1ccccc1[N+](=O)[O-] ?
## Result 42

## Task Next compound: N=c1oc2ccccc2cc1-c1nc2ccccc2[nH]1
## Result 59

## Task CN(C)/N=N/c1nc[nH]c1C(N)=O ?
## Result 6

## Task Note, next up: CN(Cc1cccc2ccccc12)Cc1cccc2ccccc12
## Result 19
